B1: INTS3 (parent)
chain: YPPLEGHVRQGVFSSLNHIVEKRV

variants of: B1; assay: protein stability index of a GFP-peptide fusion (GPS, HEK-293T) (PSI 1-6); higher = more stable; details: c terminus: a fixed tail appended;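 also: lentivirally expressed fusions sorted by FACS into six bins by GFP to DsRed ratio, PSI derived from sequencing read proportions per bin multiplied by bin number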

{"variant.annotation": "L16Q", "protein stability index": 3.01}
{"variant.annotation": "P2A", "protein stability index": 2.18}
{"variant.annotation": "L16K", "protein stability index": 3.35}
{"variant.annotation": "L4M", "protein stability index": 2.45}
{"variant.annotation": "L4W", "protein stability index": 2.91}
{"variant.annotation": "L16T", "protein stability index": 2.77}
{"variant.annotation": "I19A", "protein stability index": 3.17}
{"variant.annotation": "N17C", "protein stability index": 1.86}
{"variant.annotation": "R23C", "protein stability index": 2.22}
{"variant.annotation": "R23T", "protein stability index": 2.53}
{"variant.annotation": "H18N", "protein stability index": 2.78}
{"variant.annotation": "Q10G", "protein stability index": 2.82}
{"variant.annotation": "I19T", "protein stability index": 2.88}
{"variant.annotation": "V12A", "protein stability index": 2.58}
{"variant.annotation": "R9Y", "protein stability index": 1.92}
{"variant.annotation": "V20R", "protein stability index": 2.9}
{"variant.annotation": "F13E", "protein stability index": 3.99}
{"variant.annotation": "H18M", "protein stability index": 3.03}
{"variant.annotation": "N17M", "protein stability index": 1.64}
{"variant.annotation": "Q10S", "protein stability index": 3.33}
{"variant.annotation": "L16M", "protein stability index": 2.39}
{"variant.annotation": "H7P", "protein stability index": 2.01}
{"variant.annotation": "S14C", "protein stability index": 1.5}
{"variant.annotation": "N17F", "protein stability index": 1.78}
{"variant.annotation": "F13R", "protein stability index": 3.32}
{"variant.annotation": "R23G", "protein stability index": 2.2}
{"variant.annotation": "S14K", "protein stability index": 2.6}
{"variant.annotation": "V8D", "protein stability index": 3.25}
